Where these numbers come from: the supplement of paper PMC9732359

# method: protein stability index of a GFP-peptide fusion (yeast GPS) (PSI 1-4); higher = more stable; sorted into four equal gates, so the index is relative within each strain
# runParameters: ubr1∆
Overview of reported protein stability index across a group of sequences:
measuredAttribute: protein stability index

[[record]]
sequencerecord = "DPNEVEIKKLLATNSLV [DIS3]"
reportedmeasurement = 2.29

[[record]]
sequencerecord = "VSEDLLDERGHEKIEDE [RPN4]"
reportedmeasurement = 3.45

[[record]]
sequencerecord = "PKKYKENNTDSARKELE [SMC1]"
reportedmeasurement = 3.31

[[record]]
sequencerecord = "VSNNVLRRLEILVPDLY [ECM29]"
reportedmeasurement = 1.65

[[record]]
sequencerecord = "RDDGKRELLVEGYGLRD [RPO31]"
reportedmeasurement = 2.74

[[record]]
sequencerecord = "SCAIHARIVRVRSREDR [RPS26A]"
reportedmeasurement = 2.62

[[record]]
sequencerecord = "ENDAKKSKGDVDIKGED [NUT1]"
reportedmeasurement = 3.2

[[record]]
sequencerecord = "LVPPPRTIANQDHFHRL [RPR2]"
reportedmeasurement = 2.93

[[record]]
sequencerecord = "VTSMEAAREKKIRELEA [YIL149C/MLP2]"
reportedmeasurement = 2.86

[[record]]
sequencerecord = "QPTNFTTKRLWSEITES [MCD1]"
reportedmeasurement = 2.04

[[record]]
sequencerecord = "SMATPTHSDSHEDMKRR [ROX3]"
reportedmeasurement = 2.73

[[record]]
sequencerecord = "NQLSQTNKLLFKRVSQT [NUT1]"
reportedmeasurement = 1.38

[[record]]
sequencerecord = "VTKETVHPRKSYKMNSS [PRP8]"
reportedmeasurement = 2.9

[[record]]
sequencerecord = "YIEDFLLVIGGNQRKIL [YJR042W/NUP85]"
reportedmeasurement = 1.71

